# target.desc: TbHK1 C445A (Trypanosoma brucei brucei, UniProt Q38C42, C445A)
# assay.details: Coupled hexokinase assay, TbHK1 Cys variant C445A
# Assay type: biochemical
observed.property: IC50 (µM)

O=c1c2ccccc2[se]n1-c1ccccc1 [EbSe, 2-phenyl-1,2-benzisoselenazol-3(2H)-one]
0.52

---

# target.desc: TbHK1 C369A (Trypanosoma brucei brucei, UniProt Q38C42, C369A)
# Sequence (Q38C42 1-471 C369A): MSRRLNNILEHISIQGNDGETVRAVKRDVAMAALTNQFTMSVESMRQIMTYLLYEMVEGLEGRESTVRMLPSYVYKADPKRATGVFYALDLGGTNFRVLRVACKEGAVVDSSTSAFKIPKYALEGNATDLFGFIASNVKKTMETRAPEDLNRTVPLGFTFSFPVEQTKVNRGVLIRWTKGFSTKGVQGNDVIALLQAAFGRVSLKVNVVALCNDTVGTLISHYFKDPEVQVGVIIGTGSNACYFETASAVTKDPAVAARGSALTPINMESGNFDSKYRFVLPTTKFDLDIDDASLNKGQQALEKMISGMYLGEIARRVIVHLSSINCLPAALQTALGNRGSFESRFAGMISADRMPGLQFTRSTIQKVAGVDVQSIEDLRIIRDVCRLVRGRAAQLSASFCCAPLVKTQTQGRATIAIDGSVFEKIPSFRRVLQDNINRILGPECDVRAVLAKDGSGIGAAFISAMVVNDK
# assay.details: Coupled hexokinase assay, TbHK1 Cys variant C369A
pIC50: −log10 of the molar value.
observed.property: pIC50

O=c1c2ccccc2[se]n1-c1ccccc1
6.59

---

# target.desc: T. brucei hexokinase 1 (TbHK1), WT (Trypanosoma brucei brucei, UniProt Q38C42)
# Sequence (Q38C42 1-471): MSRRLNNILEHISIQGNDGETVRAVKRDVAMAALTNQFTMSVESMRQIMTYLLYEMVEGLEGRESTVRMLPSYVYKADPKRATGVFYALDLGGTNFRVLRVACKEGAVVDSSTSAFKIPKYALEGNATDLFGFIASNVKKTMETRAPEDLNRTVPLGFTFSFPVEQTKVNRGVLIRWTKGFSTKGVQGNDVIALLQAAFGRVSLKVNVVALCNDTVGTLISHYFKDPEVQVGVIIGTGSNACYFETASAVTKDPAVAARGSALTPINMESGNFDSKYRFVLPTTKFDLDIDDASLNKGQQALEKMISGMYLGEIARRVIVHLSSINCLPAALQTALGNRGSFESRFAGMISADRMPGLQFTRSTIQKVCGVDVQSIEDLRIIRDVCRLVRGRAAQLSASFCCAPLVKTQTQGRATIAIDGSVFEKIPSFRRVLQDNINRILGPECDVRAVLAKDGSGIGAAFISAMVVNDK
observed.property: IC50 (nM)

O=c1c2ccccc2[se]n1-c1ccccc1
350

---

# target.desc: TbHK1 C212S (Trypanosoma brucei brucei, UniProt Q38C42, C212S)
# assay.details: Coupled hexokinase assay, TbHK1 Cys variant C212S
# experimental.context: read-out: EbSe IC50, relative to WT
pIC50: −log10 of the molar value.
observed.property: pIC50

O=c1c2ccccc2[se]n1-c1ccccc1
> 6.46

src = paper PMC3862409
